- experimentNotes: clinical
- reportedConditions: human, in vivo, inhaled or intranasal, 5 mg, AUC[0-t] (ng · h/mL) GM
observationType: AUC(0-t) (µg·h/mL)
Report as a plain number; the unit µg·h/mL is understood.

*Q* # lookup: AUC(0-t) of Cc1cc(C[C@@H](NC(=O)N2CCC(c3cc4ccccc4[nH]c3=O)CC2)C(=O)N2CCN(C3CCN(C)CC3)CC2)cc2cn[nH]c12
*A* 0.0188

----------
- experimentNotes: clinical
- reportedConditions: human, in vivo, inhaled or intranasal, 10 mg, t1/2 el (h) Median
- From the text: BHV3500-101 is a completed Phase 1, single-center, placebo-controlled, randomized, double-blind, sequential SAD study. This study consisted of up to 11 cohorts. In total, 41 subjects were included in the PK analyses.
observationType: half-life

*Q* # lookup: half-life of Cc1cc(C[C@@H](NC(=O)N2CCC(c3cc4ccccc4[nH]c3=O)CC2)C(=O)N2CCN(C3CCN(C)CC3)CC2)cc2cn[nH]c12
*A* 2.92 h

----------
- experimentNotes: Phase 1 multiple ascending dose (MAD) study, intranasal, pharmacokinetics
- Parameters: species or system human
- reportedConditions: human, in vivo, Tmax
observationType: Tmax

*Q* # lookup: Tmax of Cc1cc(C[C@@H](NC(=O)N2CCC(c3cc4ccccc4[nH]c3=O)CC2)C(=O)N2CCN(C3CCN(C)CC3)CC2)cc2cn[nH]c12
*A* ~30 min

----------
- experimentNotes: clinical
- reportedConditions: human, in vivo, inhaled or intranasal, 5 mg, t1/2 el (h) Median
observationType: half-life (h)
Report as a plain number; the unit h is understood.

*Q* # lookup: half-life of Cc1cc(C[C@@H](NC(=O)N2CCC(c3cc4ccccc4[nH]c3=O)CC2)C(=O)N2CCN(C3CCN(C)CC3)CC2)cc2cn[nH]c12 [Zavegepant]
*A* 2.36

----------
- experimentNotes: Phase 1 multiple ascending dose (MAD) study, intranasal, pharmacokinetics
- Design: species or system human
- reportedConditions: human, in vivo, inhaled or intranasal, 20 mg, Tmax (h) Mean
observationType: Tmax (min)
Report as a plain number; the unit min is understood.

*Q* # lookup: Tmax of Cc1cc(C[C@@H](NC(=O)N2CCC(c3cc4ccccc4[nH]c3=O)CC2)C(=O)N2CCN(C3CCN(C)CC3)CC2)cc2cn[nH]c12
*A* 34.2
